Cited source: patent US6391305B1

# Tested on: DuPRO cells
# assayName: In vitro cytotoxicity, Alamar Blue assay, DuPRO
# Assay type: cell-based
# reportedConditions: value in parentheses beside the LNCaP value, read-out: DuPRO cell kill EC 50
# Experimental: The cytotoxicities of the cleaveable oligopeptide-doxorubicin conjugates, prepared as described in Examples 3-6, against a line of cells which is known to be killed by unmodified doxorubicin was assessed with an Alamar Blue assay. […] The cells were further incubated and the assay plates were read on a EL-310 ELISA reader at the dual wavelengths of 570 and 600 nm at 4 and 7 hours after addition of Alamar Blue. […]
pEC50: −log10 of the molar value. Non-standard residues stand in square brackets, D forms with d. *: point of attachment. Dox = doxorubicin, linked through its 3'-amine to the C-terminal carbonyl; Decanoyl(3,6,9-trioxa) = COCCOCCOCC(=O)*; Chg = N[C@H](C(=O)O)C1CCCCC1
experimentalReadout: pEC50

substance="N-[2-{2-(2-methoxyethoxy)ethoxy}acetyl]-Ser-Ser-Ser-Chg-Gln-Ser-Leu-Dox ({Decanoyl(3,6,9-trioxa)}-SSS[Chg]QSL-Dox) [PEG(2)-SSSChgQ-SL-DOX (3′)]" result="< 4.00"

----------
# subjectOfTest: enzymatically active free PSA (Homo sapiens, UniProt P07288)
# Construct: required for 50% cleavage of the noted oligopeptides with enzymatically active free PSA
# Sequence (P07288 25-261): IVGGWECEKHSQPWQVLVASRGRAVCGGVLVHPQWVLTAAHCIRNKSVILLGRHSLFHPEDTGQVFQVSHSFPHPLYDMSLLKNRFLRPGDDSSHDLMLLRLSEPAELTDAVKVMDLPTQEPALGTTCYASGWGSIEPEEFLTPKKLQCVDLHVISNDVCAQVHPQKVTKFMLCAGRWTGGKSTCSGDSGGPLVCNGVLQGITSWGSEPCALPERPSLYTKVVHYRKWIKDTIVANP
# Assay type: biochemical
# reportedConditions: oligopeptide; PSA digestion buffer pH8.0; molar ratio to PSA 100 to 1
Non-standard residues stand in square brackets, D forms with d. *: point of attachment. Decanoyl(3,6,9-trioxa) = COCCOCCOCC(=O)*; Glyceroyl(2S) = O=C([C@@H](O)CO)*; hArg = N=C(N)NCCCC[C@H](N)C(=O)O; 3Pal = N[C@@H](Cc1cccnc1)C(=O)O; Chg = N[C@H](C(=O)O)C1CCCCC1; Glycolyl = O=C(CO)*
experimentalReadout: Time to 50% Substrate Cleavage by York PSA

substance="2-hydroxyacetyl-hRASChgQ-SL-acid: blocked oligopeptide with PSA cleavage site, Example 1 (Glycolyl-[hArg]AS[Chg]QSL-OH; SMILES CC(C)C[C@H](NC(=O)[C@H](CO)NC(=O)[C@H](CCC(N)=O)NC(=O)[C@@H](NC(=O)[C@H](CO)NC(=O)[C@H](C)NC(=O)[C@H](CCCCNC(=N)N)NC(=O)CO)C1CCCCC1)C(=O)O)" result="70 min"
substance="PEG(2)-3PAL-SSChgQ-SL-acid: blocked oligopeptide with PSA cleavage site, Example 1 ({Decanoyl(3,6,9-trioxa)}-[3Pal]SS[Chg]QSL-OH; SMILES COCCOCCOCC(=O)N[C@@H](Cc1cccnc1)C(=O)N[C@@H](CO)C(=O)N[C@@H](CO)C(=O)N[C@H](C(=O)N[C@@H](CCC(N)=O)C(=O)N[C@@H](CO)C(=O)N[C@@H](CC(C)C)C(=O)O)C1CCCCC1)" result="80 min"
substance="(l)2,3-dihydroxypropionyl-3PAL-SSChgQ-SL-acid: blocked oligopeptide with PSA cleavage site, Example 1 ({Glyceroyl(2S)}-[3Pal]SS[Chg]QSL-OH; SMILES CC(C)C[C@H](NC(=O)[C@H](CO)NC(=O)[C@H](CCC(N)=O)NC(=O)[C@@H](NC(=O)[C@H](CO)NC(=O)[C@H](CO)NC(=O)[C@H](Cc1cccnc1)NC(=O)[C@@H](O)CO)C1CCCCC1)C(=O)O)" result="70 min"
substance="Ac-hRASChgQ-SL-acid: blocked oligopeptide with PSA cleavage site, Example 1 (Ac-[hArg]AS[Chg]QSL-OH; SMILES CC(=O)N[C@@H](CCCCNC(=N)N)C(=O)N[C@@H](C)C(=O)N[C@@H](CO)C(=O)N[C@H](C(=O)N[C@@H](CCC(N)=O)C(=O)N[C@@H](CO)C(=O)N[C@@H](CC(C)C)C(=O)O)C1CCCCC1)" result="50 min"

----------
# subjectOfTest: enzymatically active free PSA (Homo sapiens, UniProt P07288)
# Construct: required for 50% cleavage of the noted oligopeptides with enzymatically active free PSA
# assayName: Recognition (cleavage) of oligopeptide-doxorubicin conjugates by free PSA, HPLC
# Type: biochemical
# reportedConditions: DOX conjugate; PSA digestion buffer pH7.4, 140 mM NaCl; molar ratio to PSA 100 to 1
Non-standard residues stand in square brackets, D forms with d. Residues, ends and D or L forms follow the SMILES beside them. *: point of attachment. Doxorubicin(3'-N) = COc1cccc2c1C(=O)c1c(O)c3c(c(O)c1C2=O)C[C@@](O)(C(=O)CO)C[C@@H]3O[C@H]1C[C@H](N*)[C@H](O)[C@H](C)O1; Glyceroyl(2S) = O=C([C@@H](O)CO)*; Glyceroyl(2R) = O=C([C@H](O)CO)*; hArg = N=C(N)NCCCC[C@H](N)C(=O)O; Chg = N[C@H](C(=O)O)C1CCCCC1; Glycolyl = O=C(CO)*
Each entry below carries its recorded Time to 50% Substrate Cleavage by York PSA.
experimentalReadout: Time to 50% Substrate Cleavage by York PSA (min)

compound="COc1cccc2c1C(=O)c1c(O)c3c(c(O)c1C2=O)C[C@@](O)(C(=O)CO)C[C@@H]3O[C@H]1C[C@H](NC(=O)[C@H](CC(C)C)NC(=O)[C@H](CO)NC(=O)[C@H](CCC(N)=O)NC(=O)[C@@H](NC(=O)[C@H](CCCCNC(=N)N)NC(=O)[C@H](CO)NC(=O)[C@@H](O)CO)C2CCCCC2)[C@H](O)[C@H](C)O1 ({Glyceroyl(2S)}-S[hArg][Chg]QSL-{Doxorubicin(3'-N)})" subjectoftest="enzymatically active free PSA (Homo sapiens, UniProt P07288)" result=15
compound="COc1cccc2c1C(=O)c1c(O)c3c(c(O)c1C2=O)C[C@@](O)(C(=O)CO)C[C@@H]3O[C@H]1C[C@H](NC(=O)[C@H](CC(C)C)NC(=O)[C@H](CO)NC(=O)[C@H](CCC(N)=O)NC(=O)[C@@H](NC(=O)[C@H](CO)NC(=O)[C@H](CO)NC(=O)[C@H](CO)NC(=O)CO)C2CCCCC2)[C@H](O)[C@H](C)O1 [2-hydroxyacetyl-SSSChgQ-SL-DOX (3′)] (Glycolyl-SSS[Chg]QSL-{Doxorubicin(3'-N)})" subjectoftest="enzymatically active free PSA (Homo sapiens, UniProt P07288)" result=25
compound="COc1cccc2c1C(=O)c1c(O)c3c(c(O)c1C2=O)C[C@@](O)(C(=O)CO)C[C@@H]3O[C@H]1C[C@H](NC(=O)[C@H](CC(C)C)NC(=O)[C@H](CO)NC(=O)[C@H](CCC(N)=O)NC(=O)[C@@H](NC(=O)[C@H](CO)NC(=O)[C@H](CO)NC(=O)[C@@H](O)CO)C2CCCCC2)[C@H](O)[C@H](C)O1 ({Glyceroyl(2S)}-SS[Chg]QSL-{Doxorubicin(3'-N)})" subjectoftest="enzymatically active free PSA (Homo sapiens, UniProt P07288)" result=25
compound="COc1cccc2c1C(=O)c1c(O)c3c(c(O)c1C2=O)C[C@@](O)(C(=O)CO)C[C@@H]3O[C@H]1C[C@H](NC(=O)[C@H](CC(C)C)NC(=O)[C@H](CO)NC(=O)[C@H](CCC(N)=O)NC(=O)[C@@H](NC(=O)[C@H](CO)NC(=O)[C@H](CO)NC(=O)CO)C2CCCCC2)[C@H](O)[C@H](C)O1 [2-hydroxyacetyl-SSChgQ-SL-DOX (3′)] (Glycolyl-SS[Chg]QSL-{Doxorubicin(3'-N)})" subjectoftest="enzymatically active free PSA (Homo sapiens, UniProt P07288)" result=45
compound="COc1cccc2c1C(=O)c1c(O)c3c(c(O)c1C2=O)C[C@@](O)(C(=O)CO)C[C@@H]3O[C@H]1C[C@H](NC(=O)[C@H](CC(C)C)NC(=O)[C@H](CO)NC(=O)[C@H](CCC(N)=O)NC(=O)[C@@H](NC(=O)[C@H](CO)NC(=O)[C@H](CO)NC(=O)[C@H](CO)NC(=O)[C@H](O)CO)C2CCCCC2)[C@H](O)[C@H](C)O1 ({Glyceroyl(2R)}-SSS[Chg]QSL-{Doxorubicin(3'-N)})" subjectoftest="enzymatically active free PSA (Homo sapiens, UniProt P07288)" result=55

----------
# subjectOfTest: enzymatically active free PSA (Homo sapiens)
# Construct: required for 50% cleavage of the noted oligopeptides with enzymatically active free PSA
# Format: biochemical
# reportedConditions: psa digestion buffer, pH 8
Non-standard residues stand in square brackets, D forms with d. Residues, ends and D or L forms follow the SMILES beside them. *: point of attachment. hArg = N=C(N)NCCCC[C@H](N)C(=O)O; Cha = N[C@@H](CC1CCCCC1)C(=O)O; Nle = CCCC[C@H](N)C(=O)O; Glycolyl = O=C(CO)*
Each entry below carries its recorded Time to 50% Substrate Cleavage by York PSA.
experimentalReadout: Time to 50% Substrate Cleavage by York PSA (min)

molecule="CCCC[C@H](NC(=O)[C@H](CO)NC(=O)[C@H](CCC(N)=O)NC(=O)[C@H](CC1CCCCC1)NC(=O)[C@H](CCCCNC(=N)N)NC(C)=O)C(=O)O [Ac-hR(CHA)Q-SNle-acid] (Ac-[hArg][Cha]QS[Nle]-OH)" unitinfo=min result=200
molecule="CC(C)C[C@H](NC(=O)[C@H](CO)NC(=O)[C@H](CCC(N)=O)NC(=O)[C@H](Cc1ccc(O)cc1)NC(=O)[C@H](CO)NC(=O)[C@H](CO)NC(=O)[C@H](CCCCNC(=N)N)NC(=O)CO)C(=O)O [2-hydroxyacetyl-hRSSYQ-SL-acid] (Glycolyl-[hArg]SSYQSL-OH)" unitinfo=min result=35
molecule="CCCC[C@H](NC(=O)[C@H](CO)NC(=O)[C@H](CCC(N)=O)NC(=O)[C@H](Cc1ccc(O)cc1)NC(=O)[C@H](CCCCNC(=N)N)NC(=O)[C@H](CO)NC(C)=O)C(=O)O [Ac-ShRYQ-SNle-acid] (Ac-S[hArg]YQS[Nle]-OH)" unitinfo=min result=25
molecule="CCCC[C@H](NC(=O)[C@H](CO)NC(=O)[C@H](CCC(N)=O)NC(=O)[C@H](Cc1ccc(O)cc1)NC(=O)[C@H](CO)NC(=O)[C@H](CO)NC(=O)[C@H](CCCCNC(=N)N)NC(C)=O)C(=O)O [Ac-hRSSYQ-SNle-acid] (Ac-[hArg]SSYQS[Nle]-OH)" unitinfo=min result=25
